Experimental Target: human GluN1/GluN2B NMDA receptors (Homo sapiens, UniProt Q05586+Q13224)
Sequence (Q13224 27-1484, other chains not shown): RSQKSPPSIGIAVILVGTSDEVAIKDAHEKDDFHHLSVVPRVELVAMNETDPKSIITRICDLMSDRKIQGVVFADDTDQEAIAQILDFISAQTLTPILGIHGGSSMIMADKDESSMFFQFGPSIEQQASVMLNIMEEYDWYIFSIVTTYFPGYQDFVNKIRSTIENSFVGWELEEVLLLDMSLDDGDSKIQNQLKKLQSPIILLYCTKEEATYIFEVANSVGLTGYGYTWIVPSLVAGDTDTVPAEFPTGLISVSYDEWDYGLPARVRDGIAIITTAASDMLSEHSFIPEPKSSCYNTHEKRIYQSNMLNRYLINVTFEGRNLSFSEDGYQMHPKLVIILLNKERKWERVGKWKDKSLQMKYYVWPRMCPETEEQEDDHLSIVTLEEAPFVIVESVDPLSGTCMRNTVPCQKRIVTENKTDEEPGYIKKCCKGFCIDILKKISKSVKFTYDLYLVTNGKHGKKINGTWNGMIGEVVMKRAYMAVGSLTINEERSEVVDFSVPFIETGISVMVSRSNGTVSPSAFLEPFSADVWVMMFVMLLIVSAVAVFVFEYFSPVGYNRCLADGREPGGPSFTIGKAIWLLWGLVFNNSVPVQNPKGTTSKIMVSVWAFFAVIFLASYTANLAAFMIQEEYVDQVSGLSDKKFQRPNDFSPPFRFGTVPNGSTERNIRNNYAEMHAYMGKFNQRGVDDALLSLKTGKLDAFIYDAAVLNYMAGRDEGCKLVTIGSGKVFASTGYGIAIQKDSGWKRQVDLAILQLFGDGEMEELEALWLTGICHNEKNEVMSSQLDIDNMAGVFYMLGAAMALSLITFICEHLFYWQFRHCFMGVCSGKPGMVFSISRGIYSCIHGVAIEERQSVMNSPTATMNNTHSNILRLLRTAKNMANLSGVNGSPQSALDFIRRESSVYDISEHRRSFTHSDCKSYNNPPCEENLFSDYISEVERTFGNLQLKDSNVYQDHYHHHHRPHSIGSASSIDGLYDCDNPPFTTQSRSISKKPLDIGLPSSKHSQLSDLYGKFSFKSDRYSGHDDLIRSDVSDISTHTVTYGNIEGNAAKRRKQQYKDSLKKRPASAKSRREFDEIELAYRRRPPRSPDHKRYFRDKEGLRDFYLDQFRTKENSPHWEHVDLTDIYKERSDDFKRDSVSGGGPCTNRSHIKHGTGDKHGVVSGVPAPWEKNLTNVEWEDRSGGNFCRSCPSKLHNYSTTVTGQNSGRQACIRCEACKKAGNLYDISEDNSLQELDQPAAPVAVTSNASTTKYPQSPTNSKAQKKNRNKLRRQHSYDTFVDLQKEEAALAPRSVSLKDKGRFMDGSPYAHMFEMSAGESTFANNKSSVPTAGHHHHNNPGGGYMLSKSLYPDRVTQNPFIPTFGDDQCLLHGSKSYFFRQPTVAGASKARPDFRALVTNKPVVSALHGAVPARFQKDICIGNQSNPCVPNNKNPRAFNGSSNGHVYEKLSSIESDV
Procedure Summary: Calcium flux (FLIPR) assay on cloned human NR1/GluN2B ion channels expressed in mammalian cells (standard and HTS variants)
Settings: cells expressing human GluN1/GluN2B, glutamate and glycine co-agonists
Experimental: Effects of Test Articles on Cloned Human NR1/GuN2B Ion Channels Expressed in Mammalian Cells NMDA receptors are ion channels that are highly permeable to Ca^2+ ions, rendering it possible to monitor NMDA receptor function using cell-based calcium flux assay. […] The time course of the changes in intracellular calcium is measured using a fluorescent dye and a FLIPR (Fluorometric Imaging Plate Reader) device. […]
Recorded Metric: IC50 (nM)
Numbers only, in nM.

Below are worked cases with known answers.
{"columns": ["Chem Smiles", "Experimental Target", "IC50 [nM]"],
 "data": [
  ["CC(F)(F)c1cccc(-c2cnc3cnn(Cc4cccnc4)c3c2)c1", "human GluN1/GluN2B NMDA receptors (Homo sapiens, UniProt Q05586+Q13224)", 26],
  ["[2H]c1nn(Cc2nnc(C)o2)c2cc(-c3ccc(F)c(C(F)F)c3)cnc12", "human GluN1/GluN2B NMDA receptors (Homo sapiens, UniProt Q05586+Q13224)", 24],
  ["COc1nnc(Cn2ncc3ncc(-c4ccc(F)c(OC(F)F)c4)cc32)s1", "human GluN1/GluN2B NMDA receptors (Homo sapiens, UniProt Q05586+Q13224)", 1320]
]}

Now examine the next entry.
Give IC50 for CC(F)(F)c1cc(-c2cnc3cnn(Cc4cn[nH]c4)c3c2)ccc1F 825
